Could you please report measured pIC50 for the items listed next?
- Target Desc: UniProt:Q96GD4
- Assay Text: Inhibition of Aurora B (unknown origin) using kemptide acetate salt as substrate after 30 mins by kinase-Glo luminescence method
The scale used: pIC50 is minus the common logarithm of the concentration in molar units.

Fill in: pIC50 of `CC1(C)CC(NC(=O)c2ccc(Nc3ncc(F)c(Nc4ccccc4Cl)n3)cc2)CC(C)(C)N1[O]` is ___
8.95

Please report the recorded pIC50 for `CC1(C)CC(NC(=O)c2ccc(Nc3ncc([N+](=O)[O-])c(Nc4ccc(C(=O)Nc5ccccc5Cl)cc4)n3)cc2)CC(C)(C)N1[O]` .
8.51

Recorded pIC50 for `CC1(C)CC(NC(=O)c2ccc(Nc3ncc(F)c(Nc4ccc(C(=O)Nc5ccccc5Cl)cc4)n3)cc2)CC(C)(C)N1[O]` , please?
8.59

Can you look up the measured pIC50 of `CN1CCC(NC(=O)c2ccc(Nc3ncc(F)c(Nc4ccc(C(=O)Nc5ccccc5Cl)cc4)n3)cc2)CC1` for me?
7.31

###

- Target Desc: UniProt:O14965
- Sequence (O14965 whole entry): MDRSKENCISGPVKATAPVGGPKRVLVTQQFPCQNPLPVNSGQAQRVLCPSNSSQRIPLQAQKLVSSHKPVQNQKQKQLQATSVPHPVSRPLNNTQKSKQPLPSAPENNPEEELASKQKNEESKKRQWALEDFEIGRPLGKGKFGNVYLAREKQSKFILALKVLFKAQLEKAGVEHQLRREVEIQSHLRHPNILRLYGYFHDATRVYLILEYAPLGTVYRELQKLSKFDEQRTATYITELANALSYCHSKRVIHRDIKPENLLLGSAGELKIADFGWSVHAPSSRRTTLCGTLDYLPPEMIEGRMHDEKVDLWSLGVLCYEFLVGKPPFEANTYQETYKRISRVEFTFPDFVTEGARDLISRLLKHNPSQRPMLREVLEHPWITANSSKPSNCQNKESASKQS
- Assay Text: Inhibition of Aurora A (unknown origin) using kemptide acetate salt as substrate after 30 mins by kinase-Glo luminescence method
Metric Name: IC50 (nM)
Field format: number, assumed nM, no unit text.

What value of IC50 has been recorded for this entry: `CC1(C)CC(NC(=O)c2ccc(Nc3ncc([N+](=O)[O-])c(Nc4cccc(Cl)c4)n3)cc2)CC(C)(C)N1[O]`
0.62

Can you share its IC50? I mean this compound: `CC1(C)CC(NC(=O)c2ccc(Nc3ncc([N+](=O)[O-])c(Nc4ccc(C(=O)Nc5ccc(Cl)cc5)cc4)n3)cc2)CC(C)(C)N1[O]`
20

Would you kindly share the measured IC50 for `CC1(C)CC(NC(=O)c2ccc(Nc3ncc([N+](=O)[O-])c(Nc4ccccc4O)n3)cc2)CC(C)(C)N1[O]` ?
8.5

What value of measured IC50 is listed for `CC1(C)CC(NC(=O)c2ccc(Nc3ncc(Br)c(Nc4ccccc4Cl)n3)cc2)CC(C)(C)N1[O]` ?
0.46

###

- Target Desc: Aurora kinase B (Homo sapiens, UniProt Q96GD4)
- Sequence (Q96GD4 whole entry): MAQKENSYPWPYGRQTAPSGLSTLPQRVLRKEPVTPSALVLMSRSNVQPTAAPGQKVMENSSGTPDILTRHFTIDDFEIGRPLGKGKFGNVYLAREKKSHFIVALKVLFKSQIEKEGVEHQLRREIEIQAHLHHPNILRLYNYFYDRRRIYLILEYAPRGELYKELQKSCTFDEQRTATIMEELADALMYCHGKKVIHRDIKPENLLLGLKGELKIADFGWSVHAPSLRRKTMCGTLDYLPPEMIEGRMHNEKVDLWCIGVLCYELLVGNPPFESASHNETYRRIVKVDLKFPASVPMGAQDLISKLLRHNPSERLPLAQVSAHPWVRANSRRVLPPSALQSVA
- Assay Text: Inhibition of Aurora B (unknown origin) using kemptide acetate salt as substrate after 30 mins by kinase-Glo luminescence method
Metric Name: IC50
Form entry: enter the amount, then its unit.

Given `CC1(C)CC(NC(=O)c2ccc(Nc3ncc([N+](=O)[O-])c(Nc4cccc(Cl)c4)n3)cc2)CC(C)(C)N1[O]` , state its recorded IC50.
19.5 nM

// returns reported IC50 for input `CC1(C)CC(NC(=O)c2ccc(Nc3ncc([N+](=O)[O-])c(Nc4ccccc4O)n3)cc2)CC(C)(C)N1[O]`
11.3 nM

# get_value(readout='IC50', item= `CC1(C)CC(NC(=O)c2ccc(Nc3ncc([N+](=O)[O-])c(Nc4ccccc4Cl)n3)cc2)CC(C)(C)N1[O]` )
3.29 nM

Could you tell me which IC50 is on file for `CC1(C)CC(NC(=O)c2ccc(Nc3ncc([N+](=O)[O-])c(Nc4ccc(O)cc4)n3)cc2)CC(C)(C)N1[O]` ?
3.5 nM

Given `CC1(C)CC(NC(=O)c2ccc(Nc3ncc([N+](=O)[O-])c(Nc4ccc(Cl)cc4)n3)cc2)CC(C)(C)N1[O]` , state its recorded IC50.
0.34 nM

Consider the compound shown here: `CC1(C)CC(NC(=O)c2ccc(Nc3ncc(Cl)c(Nc4ccccc4Cl)n3)cc2)CC(C)(C)N1[O]` What is its recorded IC50?
0.29 nM

Query: IC50; subject: `CC1(C)CC(NC(=O)c2ccc(Nc3ncc([N+](=O)[O-])c(Nc4ccc(C(=O)Nc5cccc(Cl)c5)cc4)n3)cc2)CC(C)(C)N1[O]`
27 nM

What IC50 value was documented for this compound, `CC1(C)CC(NC(=O)c2ccc(Nc3ncc([N+](=O)[O-])c(Nc4ccc(C(=O)Nc5ccc(Cl)cc5)cc4)n3)cc2)CC(C)(C)N1[O]` ?
0.67 nM

Consider the compound shown here: `CC1(C)CC(NC(=O)c2ccc(Nc3ncc(Br)c(Nc4ccccc4Cl)n3)cc2)CC(C)(C)N1[O]` What is its recorded IC50?
2.67 nM

Data request, read-out IC50, for `CC1(C)CC(NC(=O)c2ccc(Nc3ncc([N+](=O)[O-])c(Nc4cccc(O)c4)n3)cc2)CC(C)(C)N1[O]`
3.5 nM

###

- Tested on: LoVo
- Assay Text: Antiproliferative activity against human LoVo cells after 48 hrs by MTT assay
- Format: functional
Metric Name: GI50 (µM)
Provide the reading as a plain figure in µM.

Consider the molecule shown here: `CC1(C)CC(NC(=O)c2ccc(Nc3ncc([N+](=O)[O-])c(Nc4ccc(C(=O)Nc5ccccc5Cl)cc4)n3)cc2)CC(C)(C)N1[O]` What is its recorded GI50?
28.5

Reported GI50, molecule `CC1(C)CC(NC(=O)c2ccc(Nc3ncc([N+](=O)[O-])c(Nc4ccc(Cl)cc4)n3)cc2)CC(C)(C)N1[O]` : ____
27.8

Which GI50 value is on record for `CC1(C)CC(NC(=O)c2ccc(Nc3ncc([N+](=O)[O-])c(Nc4cccc(Cl)c4)n3)cc2)CC(C)(C)N1[O]` ?
67.8

###

- System: LoVo
- Assay Text: Antiproliferative activity against human LoVo cells after 48 hrs by MTT assay
- Assay type: functional
One threshold, 40 µM, splits the recorded GI50 values: lower ones are condition met, equal or higher ones are condition not met.

Lab log: compare recorded GI50 with 40 µM; is it strictly lower for `CC1(C)CC(NC(=O)c2ccc(Nc3nc(Nc4ccc(C(=O)O)cc4)ncc3Br)cc2)CC(C)(C)N1[O]` ?
condition not met

I'd appreciate it if you could check whether `CC1(C)CC(NC(=O)c2ccc(Nc3ncc([N+](=O)[O-])c(Nc4ccc(C(=O)Nc5ccc(Cl)cc5)cc4)n3)cc2)CC(C)(C)N1[O]` has GI50 smaller than 40 µM.
condition not met

Dear reviewer, please state whether `CC1(C)CC(NC(=O)c2ccc(Nc3nc(Nc4ccc(C(=O)O)cc4)ncc3Cl)cc2)CC(C)(C)N1[O]` has GI50 strictly beneath 40 µM.
condition not met

Strictly below 40 µM in GI50? `CC1(C)CC(NC(=O)c2ccc(Nc3ncc(F)c(Nc4ccc(C(=O)Nc5ccccc5Cl)cc4)n3)cc2)CC(C)(C)N1[O]`
condition met

Record `CC1(C)CC(NC(=O)c2ccc(Nc3nc(Nc4ccc(C(=O)O)cc4)ncc3[N+](=O)[O-])cc2)CC(C)(C)N1[O]` : is its GI50 strictly below 40 µM?
condition met

hey, is GI50 for `CC1(C)CC(NC(=O)c2ccc(Nc3ncc([N+](=O)[O-])c(Nc4ccccc4Cl)n3)cc2)CC(C)(C)N1[O]` lower than 40 µM or not?
condition met

Please state whether GI50 is below 40 µM for `CC1(C)CC(NC(=O)c2ccc(Nc3nc(Nc4ccc(C(=O)O)cc4)ncc3F)cc2)CC(C)(C)N1[O]`
condition not met

Check if GI50 falls below 40 µM for `CC1(C)CC(NC(=O)c2ccc(Nc3ncc([N+](=O)[O-])c(Nc4ccc(O)cc4)n3)cc2)CC(C)(C)N1[O]` .
condition not met

Is it true that GI50 reported for `Cc1cc(Nc2cc(N3CCN(C)CC3)nc(Sc3ccc(NC(=O)C4CC4)cc3)n2)n[nH]1` is less than 40 µM?
condition not met

State whether 40 µM exceeds GI50 recorded for `CN1CCC(NC(=O)c2ccc(Nc3ncc(F)c(Nc4ccc(C(=O)Nc5ccccc5Cl)cc4)n3)cc2)CC1` .
condition met

Hello, I'm reviewing records and need to know if GI50 of `CC1(C)CC(NC(=O)c2ccc(Nc3ncc(F)c(Nc4ccccc4Cl)n3)cc2)CC(C)(C)N1[O]` is below 40 µM. Could you check?
condition met

Determine whether this compound shows GI50 lower than 40 µM (ties excluded): `CC1(C)CC(NC(=O)c2ccc(Nc3ncc(Cl)c(Nc4ccccc4Cl)n3)cc2)CC(C)(C)N1[O]`
condition met

Determine if `CC1(C)CC(NC(=O)c2ccc(Nc3ncc([N+](=O)[O-])c(Nc4ccccc4O)n3)cc2)CC(C)(C)N1[O]` shows GI50 strictly lower than 40 µM.
condition met

Could you please tell me whether GI50 recorded for `CC1(C)CC(NC(=O)c2ccc(Nc3ncc(Br)c(Nc4ccccc4Cl)n3)cc2)CC(C)(C)N1[O]` is less than 40 µM?
condition met
